Biological target: T1, Activin A (UniProt P08476 311-426)
T1 sequence (looked up): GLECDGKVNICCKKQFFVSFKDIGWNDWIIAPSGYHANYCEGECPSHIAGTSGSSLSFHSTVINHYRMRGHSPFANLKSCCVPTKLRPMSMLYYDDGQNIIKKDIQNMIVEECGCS
Assay: cell-based or functional assay
valueKind: IC50 (ng/mL), reporter gene assay, conditioned media
Reply with just the number (in ng/mL).

binder	quantitativeReadout
ActRIIb-hFc (R64, 23-131) (Fc fusion) EAETRECIYYNANWELERTNQSGLERCEGEQDKRLHCYASWRNSSGTIELVKKGCWLDDFNCYDRQECVATEENPQVYFCCCEGNFCNERFTHLPEAGGPEVTYEPPPTGGGTHTCPPCPAPELLGGPSVFLFPPKPKDTLMISRTPEVTCVVVDVSHEDPEVKFNWYVDGVEVHNAKTKPREEQYNSTYRVVSVLTVLHQDWLNGKEYKCKVSNKALPVPIEKTISKAKGQPREPQVYTLPPSREEMTKNQVSLTCLVKGFYPSDIAVEWESNGQPENNYKTTPPVLDSDGSFFLYSKLTVDKSRWQQGNVFSCSVMHEALHNHYTQKSLSLSPGK	43
ActRIIb-hFc (R64, 20-131) (Fc fusion) GRGEAETRECIYYNANWELERTNQSGLERCEGEQDKRLHCYASWRNSSGTIELVKKGCWLDDFNCYDRQECVATEENPQVYFCCCEGNFCNERFTHLPEAGGPEVTYEPPPTGGGTHTCPPCPAPELLGGPSVFLFPPKPKDTLMISRTPEVTCVVVDVSHEDPEVKFNWYVDGVEVHNAKTKPREEQYNSTYRVVSVLTVLHQDWLNGKEYKCKVSNKALPVPIEKTISKAKGQPREPQVYTLPPSREEMTKNQVSLTCLVKGFYPSDIAVEWESNGQPENNYKTTPPVLDSDGSFFLYSKLTVDKSRWQQGNVFSCSVMHEALHNHYTQKSLSLSPGK	201
ActRIIb-hFc (R64, 24-131) (Fc fusion) AETRECIYYNANWELERTNQSGLERCEGEQDKRLHCYASWRNSSGTIELVKKGCWLDDFNCYDRQECVATEENPQVYFCCCEGNFCNERFTHLPEAGGPEVTYEPPPTGGGTHTCPPCPAPELLGGPSVFLFPPKPKDTLMISRTPEVTCVVVDVSHEDPEVKFNWYVDGVEVHNAKTKPREEQYNSTYRVVSVLTVLHQDWLNGKEYKCKVSNKALPVPIEKTISKAKGQPREPQVYTLPPSREEMTKNQVSLTCLVKGFYPSDIAVEWESNGQPENNYKTTPPVLDSDGSFFLYSKLTVDKSRWQQGNVFSCSVMHEALHNHYTQKSLSLSPGK	105
ActRIIb-hFc (R64, 22-131) (Fc fusion) GEAETRECIYYNANWELERTNQSGLERCEGEQDKRLHCYASWRNSSGTIELVKKGCWLDDFNCYDRQECVATEENPQVYFCCCEGNFCNERFTHLPEAGGPEVTYEPPPTGGGTHTCPPCPAPELLGGPSVFLFPPKPKDTLMISRTPEVTCVVVDVSHEDPEVKFNWYVDGVEVHNAKTKPREEQYNSTYRVVSVLTVLHQDWLNGKEYKCKVSNKALPVPIEKTISKAKGQPREPQVYTLPPSREEMTKNQVSLTCLVKGFYPSDIAVEWESNGQPENNYKTTPPVLDSDGSFFLYSKLTVDKSRWQQGNVFSCSVMHEALHNHYTQKSLSLSPGK	100

Next item in the queue.
Req: Give its IC50 (ng/mL), reporter gene assay, conditioned media value. Item: ActRIIb-hFc (R64, 21-131) (Fc fusion) RGEAETRECIYYNANWELERTNQSGLERCEGEQDKRLHCYASWRNSSGTIELVKKGCWLDDFNCYDRQECVATEENPQVYFCCCEGNFCNERFTHLPEAGGPEVTYEPPPTGGGTHTCPPCPAPELLGGPSVFLFPPKPKDTLMISRTPEVTCVVVDVSHEDPEVKFNWYVDGVEVHNAKTKPREEQYNSTYRVVSVLTVLHQDWLNGKEYKCKVSNKALPVPIEKTISKAKGQPREPQVYTLPPSREEMTKNQVSLTCLVKGFYPSDIAVEWESNGQPENNYKTTPPVLDSDGSFFLYSKLTVDKSRWQQGNVFSCSVMHEALHNHYTQKSLSLSPGK
Resp: 325
